Target: T1, Nluc-IL23R fusion protein (human, UniProt Q5VWK5 22-629)
T1 construct: range 22-629; expressed with a secretion signal in HEK293 cells; used as crude membrane preparation; also called hIL-23R; human IL-23R; not shown: Nanoluc protein from the expression plasmid N1371 (Promega), N-terminal of IL-23R
T1 sequence (looked up): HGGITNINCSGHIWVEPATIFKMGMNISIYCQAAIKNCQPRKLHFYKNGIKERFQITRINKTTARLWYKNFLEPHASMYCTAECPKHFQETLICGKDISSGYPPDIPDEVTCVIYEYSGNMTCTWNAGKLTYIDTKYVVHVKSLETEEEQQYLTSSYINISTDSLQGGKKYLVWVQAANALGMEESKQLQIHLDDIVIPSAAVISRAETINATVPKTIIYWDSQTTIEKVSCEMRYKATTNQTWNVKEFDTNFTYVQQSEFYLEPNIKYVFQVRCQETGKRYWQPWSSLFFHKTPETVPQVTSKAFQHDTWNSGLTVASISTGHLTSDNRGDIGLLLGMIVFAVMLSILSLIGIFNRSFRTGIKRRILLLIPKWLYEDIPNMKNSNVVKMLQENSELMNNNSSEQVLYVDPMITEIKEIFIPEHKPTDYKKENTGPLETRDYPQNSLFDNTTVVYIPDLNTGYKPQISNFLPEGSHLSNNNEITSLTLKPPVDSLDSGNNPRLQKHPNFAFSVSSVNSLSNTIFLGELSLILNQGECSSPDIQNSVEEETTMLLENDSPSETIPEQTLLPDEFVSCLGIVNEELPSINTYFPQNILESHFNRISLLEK
Experiment: BRET competition vs TAMRA-labelled peptide, Nluc-IL23R membranes
*1 amine or outer side, *2 acyl side, *3 side chain or, on linkers, in order; H or OH if unused. Bridges are numbered along the chain shown (N, C = ends). Primed or numbered codes have the meaning given here. [ ]: non-standard residue; d: D form. 4‑Aminomethyl‑phenylacetyl = 4-aminomethyl-phenylacetyl unit, its amine closes the lactam, O=C(Cc1ccc(CN[*:1])cc1)[*:2]; Q(pyrrolidin)″ = (2S)-2-amino-5-oxo-5-pyrrolidin-1-yl-pentanoic acid, O=C(CC[C@H](N[*:1])C(=O)[*:2])N1CCCC1; 2Nal = N[C@@H](Cc1ccc2ccccc2c1)C(=O)O; AEF = NCCOc1ccc(C[C@H](N)C(=O)O)cc1; 3Pal = N[C@@H](Cc1cccnc1)C(=O)O; αMeL = CC(C)C[C@](C)(N)C(=O)O; Dab = NCC[C@H](N)C(=O)O
result.type: % displacement (hIL-23R binding) (%)
One number for each entry, in %.

stdin: Identify measured % displacement (hIL-23R binding) corresponding to [4‑Aminomethyl‑phenylacetyl]SEW[Q(pyrrolidin)″][Dab][AEF][2Nal][αMeL]E[Dab]-NH2 (lactam N-10, 3-6) [Ref 146]
stdout: 105

# next binder below
stdin: Identify measured % displacement (hIL-23R binding) corresponding to [4‑Aminomethyl‑phenylacetyl]SEWQ[Dab][AEF][2Nal][αMeL]E[Dab][3Pal]-NHMe (lactam N-10, 3-6) [Compound 8]
stdout: 103

The values you see were collected from patent EP4471049A1.
